system: pooled human cryopreserved hepatocytes (pHHeps); test: Metabolic stability, pooled human cryopreserved hepatocyte incubations; conditions: pHHeps, 6 min
Provide the reported % parent compound remaining, Average of each item.
Please reply with the bare figure in % and do not write the unit itself.

Q: GET /values?readout=% parent compound remaining, Average&system=pooled human cryopreserved hepatocytes (pHHeps)&item= C=CCCCn1cc(C(=O)N[C@@H](C(=O)OC)C(C)C)c2ccccc21 [(R)-AMB-4en-PICA (7)]
A: 46.1

Q: What measured % parent compound remaining, Average is associated with COC(=O)[C@H](NC(=O)c1cn(CCCCCF)c2ccccc12)C(C)(C)C [(R)-5F-MDMB-PICA (3)] on pooled human cryopreserved hepatocytes (pHHeps)?
A: 85.8

Q: Requested read-out % parent compound remaining, Average, target or system pooled human cryopreserved hepatocytes (pHHeps), entry COC(=O)[C@H](NC(=O)c1nn(Cc2ccc(F)cc2)c2ccccc12)C(C)(C)C [(R)-MDMB-FUBINACA (6)]
A: 82.9

Q: For pooled human cryopreserved hepatocytes (pHHeps), provide % parent compound remaining, Average of CC(C)[C@H](NC(=O)c1nn(Cc2ccc(F)cc2)c2ccccc12)C(N)=O [(S)-AB-FUBINACA (8)] please.
A: 86.0

Q: Look up % parent compound remaining, Average with pooled human cryopreserved hepatocytes (pHHeps) for this compound: COC(=O)[C@@H](NC(=O)c1cn(CCCCCF)c2ccccc12)C(C)(C)C [(S)-5F-MDMB-PICA (3)]
A: 91.2

Q: Write down the reported % parent compound remaining, Average of C=CCCCn1cc(C(=O)N[C@@H](C(=O)OC)C(C)(C)C)c2ccccc21 [(R)-MDMB-4en-PICA (12)] , test system: pooled human cryopreserved hepatocytes (pHHeps).
A: 81.5

Q: Requested read-out % parent compound remaining, Average, target or system pooled human cryopreserved hepatocytes (pHHeps), entry COC(=O)[C@H](NC(=O)c1nn(CCCCF)c2ccccc12)C(C)(C)C [(R)-4F-MDMB-BINACA (4)]
A: 84.6

Q: GET /values?readout=% parent compound remaining, Average&system=pooled human cryopreserved hepatocytes (pHHeps)&item= COC(=O)[C@@H](NC(=O)c1nn(Cc2ccc(F)cc2)c2ccccc12)C(C)(C)C [(S)-MDMB-FUBINACA (6)]
A: 73.3
